- System: K12877-001-R-J1-PDC complex spheroid viability;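 further: tumour cells co-cultured with HUVEC and mesenchymal stem cells in spheroids; spheroids exposed to agents for one week before readout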
- Method: Anticancer human tumor K12877-001-R-J1-PDC patient-derived lung adenocarcinoma cell line growth inhibition [RAS]
- Condition Info: second compound 0.000949 µM; first compound 0.316 µM; stronger effect = lower value
For each entry below, report its viability, T/C value.
Reply numerically in %, unit not repeated.

Ask: Report viability, T/C for CC(Nc1ccc2c(c1)OCCn1cc(N3C(=O)OCC3C(F)F)nc1-2)C(N)=O (centres undefined) + CCn1c(-c2cc(N3CCN(C)CC3)cnc2C(C)OC)c2c3cc(ccc31)-c1csc(n1)CC(NC(=O)C1CC1C)C(=O)N1CCCC(N1)C(=O)OCC(C)(C)C2 tested on K12877-001-R-J1-PDC complex spheroid viability.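 Further: tumour cells co-cultured with HUVEC and mesenchymal stem cells in spheroids; spheroids exposed to agents for one week before readout.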
Reply: 81.5

Ask: Next compound: O=C(c1ccc(F)c(F)c1Nc1ccc(I)cc1F)N1CC(O)([C@@H]2CCCCN2)C1 + CCn1c(-c2cccnc2C(C)OC)c2c3cc(ccc31)N1CCOC(CC(NC(=O)C(C(C)C)N(C)C(=O)C3(F)CCN(C(=O)C#CC(C)(C)N(C)C)CC3)C(=O)N3CCCC(N3)C(=O)OCC(C)(C)C2)C1
Reply: 49.9

Ask: Likewise for CC(C)NCC(C(=O)N1CCN(c2ncnc3c2C(C)CC3O)CC1)c1ccc(Cl)cc1 (centres undefined) + CCn1c(-c2cccnc2C(C)OC)c2c3cc(ccc31)N1CCOC(CC(NC(=O)C(C(C)C)N(C)C(=O)C3(F)CCN(C(=O)C#CC(C)(C)N(C)C)CC3)C(=O)N3CCCC(N3)C(=O)OCC(C)(C)C2)C1 ?
Reply: 80.5

Ask: Same for NC1c2ccccc2OC12CCN(c1cnc3c(N4CCCc5ncccc54)n[nH]c3n1)CC2 (centres undefined) + CCn1c(-c2cccnc2C(C)OC)c2c3cc(ccc31)N1CCOC(CC(NC(=O)C(C(C)C)N(C)C(=O)C3(F)CCN(C(=O)C#CC(C)(C)N(C)C)CC3)C(=O)N3CCCC(N3)C(=O)OCC(C)(C)C2)C1
Reply: 56

Where do the numbers come from? From PubChem BioAssay AID2060894.
